biological target: BACH2 (Homo sapiens, UniProt Q9BYV9); assay: Direct-binding FRET assay; design: made in house; details: Kd, 4°C; N-terminal rhodamine design; mean or single
Sequence (Q9BYV9 646-709 limits assumed): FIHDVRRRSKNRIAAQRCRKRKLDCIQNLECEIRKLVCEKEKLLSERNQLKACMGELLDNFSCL
pKd: −log10 of the molar value. Where no end group is shown, it is not given here.
Measurement Kind: pKd

So for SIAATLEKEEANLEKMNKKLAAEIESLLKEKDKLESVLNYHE [JUN-d1] , the logged pKd turned out to be < 6.00

* * *

molecular target: BACH1 (Homo sapiens, UniProt O14867); experiment: Direct-binding FRET assay; set-up: made in house; details: 4°C; C-terminal fluorescein design as donor, TAMRA target titrated
Sequence (O14867 557-620 limits assumed): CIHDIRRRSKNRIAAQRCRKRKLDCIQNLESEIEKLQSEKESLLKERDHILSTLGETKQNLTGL
Where no end group is shown, it is not given here.
Measurement Kind: Kd

So for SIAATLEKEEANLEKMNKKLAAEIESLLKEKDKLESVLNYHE [JUN-d1] , the logged Kd turned out to be > 1 µM
